assay: Cell viability of murine macrophages (WST-1 mitochondrial respiration), in parallel with NO release; type: cell-based; settings: mouse, pH 7.2, CBD 0.025 weight % in mixture with NeutraZen 0.1%; read-out: Cell viability (% as compared to the negative control)
parameter: viability at 25 h, 0.025 weight %
Record the result as a number with its unit.

Problem: Find the recorded viability at 25 h, 0.025 weight % belonging to `C=C(C)[C@@H]1CCC(C)=C[C@H]1c1c(O)cc(CCCCC)cc1O` and report it.
Solution: 99.7%

---

assay: Cell viability of murine macrophages (WST-1 mitochondrial respiration), in parallel with NO release; format: cell-based; conditions: mouse, pH 7.2, CBD 0.05 weight % in mixture with NeutraZen 0.05%; read-out: Cell viability (% as compared to the negative control)
parameter: viability at 25 h, 0.05 weight % (%)
Form entry: value (%) — number only.

Problem: Find the recorded viability at 25 h, 0.05 weight % belonging to C=C(C)[C@@H]1CCC(C)=C[C@H]1c1c(O)cc(CCCCC)cc1O [CBD] and report it.
Solution: 101

---

test: Cell viability of murine macrophages (WST-1 mitochondrial respiration), in parallel with NO release; type: cell-based; conditions: mouse, pH 7.2, CBD 0.5 weight % in mixture with NeutraZen 0.1%; read-out: Cell viability (% as compared to the negative control)
parameter: viability at 25 h, 0.5 weight % (%)
Form entry: value (%) — number only.

Problem: Find the recorded viability at 25 h, 0.5 weight % belonging to `C=C(C)[C@@H]1CCC(C)=C[C@H]1c1c(O)cc(CCCCC)cc1O` and report it.
Solution: 8.56

---

test: Cell viability of murine macrophages (WST-1 mitochondrial respiration), in parallel with NO release; format: cell-based; conditions: mouse, pH 7.2, CBD 0.025 weight % in mixture with NeutraZen 0.01%; read-out: Cell viability (% as compared to the negative control)
parameter: viability at 25 h, 0.025 weight % (%)
Form entry: value (%) — number only.

Problem: Find the recorded viability at 25 h, 0.025 weight % belonging to `C=C(C)[C@@H]1CCC(C)=C[C@H]1c1c(O)cc(CCCCC)cc1O` and report it.
Solution: 99.7

---

Test: Cell viability of murine macrophages (WST-1 mitochondrial respiration), in parallel with NO release
Format: cell-based
Details: mouse, pH 7.2, CBD 0.01 weight % in mixture with NeutraZen 0.05%; read-out: Cell viability (% as compared to the negative control)
Procedure: MURINS RAW 267.4 Macrophage cell line (Sigma-Aldrich, No. P6110401, Lot. 091006), low number of passages (less than 50). […] In parallel with the evaluation of the release of NO, the cell viability was measured to validate the tests. […] (5% CO2), the Optical Density (OD) of each well was read at a wavelength of 450 nm by an Infinite M200 Pro fluorescence-luminescence reader (TECAN). […]
parameter: viability at 25 h, 0.01 weight % (%)
Form entry: value (%) — number only.

Problem: Find the recorded viability at 25 h, 0.01 weight % belonging to `C=C(C)[C@@H]1CCC(C)=C[C@H]1c1c(O)cc(CCCCC)cc1O` and report it.
Solution: 98

---

assay: Cell viability of murine macrophages (WST-1 mitochondrial respiration), in parallel with NO release; type: cell-based; details: mouse, pH 7.2, sample alone at 1 weight %; read-out: Cell viability (% as compared to the negative control)
parameter: viability at 25 h, 1 weight % (%)
Form entry: value (%) — number only.

Problem: Find the recorded viability at 25 h, 1 weight % belonging to `C=C(C)[C@@H]1CCC(C)=C[C@H]1c1c(O)cc(CCCCC)cc1O` and report it.
Solution: 2.9
